Species: Bos taurus
Assay details: Inhibition of [3H]colchicine binding to bovine brain tubulin at 0.5 uM relative to control
Assay type: tissue-based
Assign class by inhibition: not lower than 80% means fulfilled; lower than 80% means not fulfilled.

Structure smiles: CCOc1ccc2c(C(=O)c3cc(OC)c(OC)c(OC)c3)c(N)oc2c1
Class name: fulfilled
--
Structure smiles: COc1cc(C(=O)c2c(N)oc3cc(Br)ccc23)cc(OC)c1OC
Class name: not fulfilled
--
Structure smiles: COc1cc(C(=O)c2c(N)oc3cc(C)ccc23)cc(OC)c1OC
Class name: not fulfilled
--
Structure smiles: CCCOc1ccc2c(C(=O)c3cc(OC)c(OC)c(OC)c3)c(N)oc2c1
Class name: not fulfilled
--
Structure smiles: COc1cc(C(=O)c2c(N)oc3c(O)c(OC)ccc23)cc(OC)c1OC
Class name: fulfilled
